Reference source for all entries: PubChem BioAssay

For each of the compounds below, state its inhibition of aggregation.
- procedure text: reduction of polyQ htt aggregates in cells – imaging, exon1htt(103Q)mCFP cells, high-content imaging, primary screen (AID 483);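 further: compound exposure lasted 3 days before fixation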
- test conditions: exon1htt(103Q)mCFP cell line, aggregate imaging, at 2 µM; hits give high values
Expressed in %, but write only the number.

Consider the compound O=C1OCCC1Sc1ncnc2sc3c(c12)CCC3 (stereo unspecified) and give its recorded inhibition of aggregation.
4.8

Consider the compound O=C(CN1CCN(Cc2ccccc2)CC1)NCC1COc2ccccc2O1 (stereo unspecified) and give its recorded inhibition of aggregation.
-7

Consider the compound COc1cc(=O)[nH]c(SCc2c(F)c(F)c(F)c(F)c2F)n1 and give its recorded inhibition of aggregation.
6.7

Consider the compound COc1ccccc1NS(=O)(=O)c1ccc(OC)c(OC)c1 and give its recorded inhibition of aggregation.
0.8

Consider the compound CC(=O)c1ccc(NC(=O)CSc2nnc(-c3ccoc3C)n2Cc2ccccc2)cc1 and give its recorded inhibition of aggregation.
5.2

Consider the compound COc1ccc(CCN2C(=O)CC(N3CCOCC3)C2=O)cc1 (stereo unspecified) and give its recorded inhibition of aggregation.
-7.6

Consider the compound CCOC(=O)c1sc(NC(=O)COC(=O)Cn2cnc3ccccc32)c(C(=O)OCC)c1C and give its recorded inhibition of aggregation.
2.6

Consider the compound COc1cc(CNc2ccc(N3CCOCC3)c(C(=O)O)c2)ccc1OCC(N)=O and give its recorded inhibition of aggregation.
-15.5

Consider the compound CN(C)/C=C(\C#N)c1nc2ccccc2[nH]1 and give its recorded inhibition of aggregation.
-17.2

Consider the compound COc1ccc(S(=O)(=O)Cc2ccc(C(=O)N3CCOCC3)o2)cc1 and give its recorded inhibition of aggregation.
-10.7

Consider the compound CCOC(=O)C1=C(Cn2cnc3ccccc32)NC(=O)NC1c1cc(C)ccc1C (stereo unspecified) and give its recorded inhibition of aggregation.
-15.4

====

- procedure text: TLR3 IRF3 reporter activation blockers – cell-based, poly I:C stimulus, luciferase, 10K MLSCN set, primary screen (AID 602277)
- test conditions: HEK293-TLR3 RL24 IRF3 luciferase reporter, at 10 µM, hits give high values
Activity calls are given as the source filed them.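 Rule for the calls: active = inhibition of the reporter signal at or above 50%; inactive = inhibition below 50%.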
measured endpoint: inhibition

Consider the compound Cc1nc2ccccc2c(=O)n1/N=C/c1ccncc1 and give its recorded inhibition.
4.48% (inactive)

Consider the compound CCOC(=O)C(C)C1(O)c2ccccc2-c2ncccc21 (stereo unspecified) and give its recorded inhibition.
8.95% (inactive)

Consider the compound CC(C)c1cc(C(=O)Nc2cccnc2)no1 and give its recorded inhibition.
-67.3% (inactive)

Consider the compound Cc1cccc(-n2c(SCc3cc(=O)n4ccsc4n3)nc3ccccc32)c1 and give its recorded inhibition.
-9.49% (inactive)

Consider the compound O=C(Nc1ccc2c(c1)OCCO2)NC1CCCCC1 and give its recorded inhibition.
-68.9% (inactive)

Consider the compound COc1ccc(N2CCN(C(=O)CSc3ccccc3)CC2)cc1 and give its recorded inhibition.
-34.1% (inactive)

====

- procedure text: endothelial E-selectin expression blockers – imaging, HUVEC, immunofluorescence, MLSMR starter and 10KST1 sets, primary screen (AID 487);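 further: signal is fraction of cell area covered by stained E-selectin grains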
- test conditions: HUVEC TNFalpha-induced E-selectin immunofluorescence imaging, at 2 µM; hits give high values
Calls of active or inactive are those of the source.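 Rule for the calls: active = visually confirmed hit in the image check and inhibition above 20%; inconclusive = visually confirmed hit but inhibition not above 20%; inactive = no visual hit in the image check.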
For each of the compounds below, state its inhibition.

Consider the compound CCOC(=O)CSc1nc2ccccc2n1CC(=O)N1CCN(c2ccccc2)CC1 and give its recorded inhibition.
50.8% (inactive)

Consider the compound CC(=O)N1CCC2(CC1)CC(=O)c1cc(OCC(=O)NCc3ccco3)ccc1O2 and give its recorded inhibition.
-143% (inactive)

Consider the compound CCCOc1ccccc1NC(=O)c1ccc(N)cc1 and give its recorded inhibition.
-137% (inactive)

Consider the compound COC(=O)C1=CN(C(C)C)C=C(C(=O)OC)C1c1cc2c(cc1Br)OCO2 and give its recorded inhibition.
-70.4% (inactive)

Consider the compound CCCOC(=O)/C(C(N)=NCc1ccccc1)=C(\O)OCCC and give its recorded inhibition.
-8.5% (inactive)

Consider the compound O=C(O)C1CCCN1C(=O)Nc1ccc(F)cc1 (stereo not given) and give its recorded inhibition.
-32.7% (inactive)

Consider the compound COc1ccc(-c2nnc(SCC(=O)Nc3cc(C)on3)n2C)cc1OC and give its recorded inhibition.
-12.1% (inactive)

Consider the compound COCCCn1c(=N)c(C(=O)NCC2CCCO2)cc2c(=O)n3cccc(C)c3nc21 (stereo not given) and give its recorded inhibition.
28.1% (inactive)

Consider the compound COC(=O)c1[nH]c2ccc(C)cc2c1NC(=O)CN1CCN(C(=O)c2ccccc2)CC1 and give its recorded inhibition.
-26.1% (inactive)

Consider the compound COc1ccc(-c2noc(CSc3nc4ccccc4c(=O)n3-c3ccccc3)n2)cc1OC and give its recorded inhibition.
-114% (inactive)

Consider the compound Cc1cc(C)n(C(C)n2nc(C)cc2C)n1 and give its recorded inhibition.
-37% (inactive)

Consider the compound CCn1c(Cc2ccccc2)nnc1SCC(=O)Nc1nc2ccccc2s1 and give its recorded inhibition.
-24.9% (inactive)

Consider the compound COC(=O)CCc1c(C)c(C#N)c2nc3ccccc3n2c1N1CCCC1 and give its recorded inhibition.
-103% (inactive)

Consider the compound Cc1sc2c(c1C)CN(C1CC(C)(C)NC(C)(C)C1)CN2C(=O)c1ccco1 and give its recorded inhibition.
-5% (inactive)

Consider the compound CC(=O)Nc1c(O)n(C)c2ccccc12 and give its recorded inhibition.
25.2% (inactive)

Consider the compound CCOC(=O)C1CCN(C(=O)Nc2ccc3nc(C)c(C)nc3c2)CC1 and give its recorded inhibition.
-20.1% (inactive)

Consider the compound CN(C)C(=O)CSc1nnc2sc3ccccc3n12 and give its recorded inhibition.
-32.3% (inactive)

Consider the compound Cc1cc(C)c2nc(C(F)(F)F)nc(NCCCN3CCCC3=O)c2c1 and give its recorded inhibition.
-230% (inactive)

Consider the compound COc1cc(C2C(C#N)=C(N)OC3=C2C(=O)CC(C)(C)C3)ccc1OC(=O)N1CCOCC1 (stereo not given) and give its recorded inhibition.
-75% (inactive)

Consider the compound CCOc1ccccc1C1CC(=O)NC(SCC)=C1C#N (stereo not given) and give its recorded inhibition.
-10% (inactive)

Consider the compound COc1ccccc1N1CCN(C(=O)C2CCN(S(=O)(=O)c3ccc(F)cc3)CC2)CC1 and give its recorded inhibition.
-23.6% (inactive)

Consider the compound COC(=O)c1ccccc1NC(=O)CN1CCC(n2nnc3cc(F)ccc32)CC1 and give its recorded inhibition.
35% (inactive)

Consider the compound CCOC(=O)c1cc(CC)sc1NC(=O)COC and give its recorded inhibition.
34% (inactive)

Consider the compound N#Cc1nc(-c2ccc(Cl)cc2)oc1NCCc1ccccn1 and give its recorded inhibition.
-40.5% (inactive)

Consider the compound CN1CCN(C(=O)CCC(=O)c2ccc(F)cc2)CC1 and give its recorded inhibition.
-2.6% (inactive)

Consider the compound Cc1ccc(S(=O)(=O)NCCSc2nnnn2-c2ccc(C(N)=O)cc2)cc1 and give its recorded inhibition.
-14.3% (inactive)

Consider the compound CCn1ncc(C2=NOC(C(=O)Nc3ccc4c(c3)OCO4)C2)c1C (stereo not given) and give its recorded inhibition.
-156% (inactive)

Consider the compound O=C(CN(c1ccc(F)cc1)S(=O)(=O)c1ccc2c(c1)OCCO2)NCC1CCCO1 (stereo not given) and give its recorded inhibition.
-58.6% (inactive)

Consider the compound Clc1ccc(Cn2ncc3c(NCc4cccnc4)ncnc32)cc1 and give its recorded inhibition.
41.6% (inactive)

Consider the compound CCNS(=O)(=O)c1ccc(S(=O)(=O)N(Cc2ccccn2)C2CCCCC2)cc1 and give its recorded inhibition.
-3.6% (inactive)

Consider the compound CCOC(=O)N1CCN(C(=O)C2CC(=O)N(Cc3ccc(OC)cc3)C2)CC1 (stereo not given) and give its recorded inhibition.
-28.6% (inactive)

Consider the compound COc1ccc(Nc2nc(OC)nc(N3CCN(c4ccc(OC)cc4)CC3)n2)cc1 and give its recorded inhibition.
-14.1% (inactive)

Consider the compound O=C1c2oc3ccccc3c(=O)c2C(c2cccnc2)N1Cc1ccco1 (stereo not given) and give its recorded inhibition.
-107% (inactive)

Consider the compound O=S(=O)(Nc1cccnc1)c1ccc2c(c1)OCCO2 and give its recorded inhibition.
16.8% (inactive)

Consider the compound CC(=O)NC1CC2CCCC(C1)N2CC(=O)Nc1ccccc1 (stereo not given) and give its recorded inhibition.
26.1% (inactive)

Consider the compound CCOC(=O)N1CCN(C(=O)c2ccc(CS(=O)(=O)c3ccc(OC)cc3)o2)CC1 and give its recorded inhibition.
8.5% (inactive)

Consider the compound COc1cc2c(cc1NC(=O)CSc1nnc(Cc3cccs3)n1C)oc1ccccc12 and give its recorded inhibition.
-30.5% (inactive)

Consider the compound CC1CCCCC1NC(=O)Cn1ncc2ccccc21 (stereo not given) and give its recorded inhibition.
-81.1% (inactive)

Consider the compound O=C(CSc1ccccc1C(=O)NCCCN1CCCC1=O)NCc1ccco1 and give its recorded inhibition.
-81.8% (inactive)

Consider the compound Cc1ccc(S(=O)(=O)NCCNC(=O)C2CCCNC2=O)cc1 (stereo not given) and give its recorded inhibition.
-14.7% (inactive)

Consider the compound O=C(c1cc(-c2cccs2)on1)N1CCc2ccccc2C1 and give its recorded inhibition.
-28.9% (inactive)

Consider the compound CC1(C)CC(=O)C(C=NC(CCC(N)=O)C(=O)O)=C(O)C1 (stereo not given) and give its recorded inhibition.
54.4% (active)

Consider the compound O=C(c1cnc2sccn2c1=O)N1CCc2ccccc2C1 and give its recorded inhibition.
-376% (inactive)

Consider the compound CC(NC(=O)NC12CC3CC(CC(C3)C1)C2)C1CCCO1 (stereo not given) and give its recorded inhibition.
1.7% (inactive)

Consider the compound CN1CCN(c2ccc(Cl)cc2NC(=O)c2cccc(S(=O)(=O)N(C)C)c2)CC1 and give its recorded inhibition.
14.4% (inactive)
